subject.of.test: human PD-L1/His fusion protein (human, UniProt Q9NZQ7 19-239)
Sequence (Q9NZQ7 19-239 limits assumed): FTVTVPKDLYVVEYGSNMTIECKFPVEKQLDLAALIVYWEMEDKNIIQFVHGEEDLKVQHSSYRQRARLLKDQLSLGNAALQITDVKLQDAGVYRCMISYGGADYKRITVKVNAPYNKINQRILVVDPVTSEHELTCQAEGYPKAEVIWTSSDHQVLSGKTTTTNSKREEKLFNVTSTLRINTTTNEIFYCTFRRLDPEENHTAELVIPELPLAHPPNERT
protocol.details: BLI off-rate; test group 4
reported.metric: Off-Rate Ratio to that of EM0005-87c

Task: Looking for the measured Off-Rate Ratio to that of EM0005-87c of HuEM0005-87-21 (antibody, human IgG1, V domains shown) VH: EVQLVQSGAEVKKPGASVKVSCKASGYTFTDYYINWVRQAPGQGLEWMGETIPNTGGTTYNQKFKARVTMTVDTSTSTVYMELSSLRSEDTAVYYCARYQSGSPFAYWGQGTTVTVSS VL: DIVMTQSPATLSVSPGERATLSCKASQNVGTAVAWYQQKPGQAPRLLIYSASNRYTGVPDRFTGSGSGTDFTLTISSLQSEDFAVYYCQQHYSTPYTFGGGTKLEIK , can you help?
Result: 58%

Task: Field request: Off-Rate Ratio to that of EM0005-87c | item: HuEM0005-87-23 (antibody, human IgG1, V domains shown) VH: EVQLVQSGAEVKKPGASVKVSCKASGYTFTDYYINWVRQAPGQGLEWIGETIPNTGGTTYNQKFKARVTLTVDKSTSTVYMELSSLRSEDTAVYYCARYQSGSPFAYWGQGTTVTVSS VL: DIVMTQSPATLSVSPGERATLSCKASQNVGTAVAWYQQKPGQAPRLLIYSASNRYTGVPDRFTGSGSGTDFTLTISSLQSEDFAVYYCQQHYSTPYTFGGGTKLEIK
Result: 101%

Task: Would you kindly share the measured Off-Rate Ratio to that of EM0005-87c for HuEM0005-87-24 (antibody, human IgG1, V domains shown) VH: EVQLVQSGAEVKKPGASVKVSCKASGYSFTDYYINWVRQAPGQGLEWIGETIPNTGGTTYNQKFKAKATLTVDKSTSTAYMELSSLRSEDTAVYYCARYQSGSPFAYWGQGTTVTVSS VL: DIVMTQSPATLSVSPGERATLSCKASQNVGTAVAWYQQKPGQAPRLLIYSASNRYTGVPDRFTGSGSGTDFTLTISSLQSEDFAVYYCQQHYSTPYTFGGGTKLEIK ?
Result: 113%
